Provenance of the data: patent US20180362632A1

Target: recombinant human GM-CSF protein (human, UniProt P04141 18-144)
Sequence (P04141 18-144): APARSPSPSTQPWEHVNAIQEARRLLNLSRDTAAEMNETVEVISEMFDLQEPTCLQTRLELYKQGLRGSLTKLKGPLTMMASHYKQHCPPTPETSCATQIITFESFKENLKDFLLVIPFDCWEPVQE
Assay: ELISA
In this section we review reported pEC50 values for a set of binders.
Interpret pEC50 as the negative base-10 log of the concentration measured in mol/L.

Examples from the recorded data:
{"BINDER": "Hu23F4-28 (antibody, V domains shown) VH: EVQLVQSGAEVKKPGASVKVSCKASGYTFTSHYLHWVRQAPGQGLEWMGWIFPGDDKTKYNEKFKGRVTLTSDTSISTAYMELSRLRSDDTAVYYCARGTKYLNWNFDVWGQGTTVTVSS VL: DIQLTQSPSFLSASVGDRVTITCKANQNVGTTLAWYQQKPGKAPKLLIYSASYRYSGVPSRFSGSGSGTEFTLTISSLQPEDFATYYCHQYTTYPLTFGGGTKVEIK", "RECORDED RESULT": 10.00}
{"BINDER": "Hu23F4-38 (antibody, V domains shown) VH: EVQLVQSGAEVKKPGASVKVSCKASDYTLTSHYLHWVRQAPGQGLEWIGWIFPGDDKTKYNEKFKGRATLTSDTSISTAYMELSRLRSDDTAVYYCARGTKYLNWNFDVWGQGTTVTVSS VL: DIQLTQSPSFLSASVGDRVTITCKANQNVGTTLAWYQQKPGKAPKALIYSASYRYSGVPDRFSGSGSGTDFTLTISSLQPEDFATYYCHQYTTYPLTFGGGTKVEIK", "RECORDED RESULT": 9.87}

Next, consider the following binder.
Lookup: Can you look up the measured pEC50 of Hu23F4-31 (antibody, V domains shown) VH: EVQLVQSGAEVKKPGASVKVSCKASGYTFTSHYLHWVRQAPGQGLEWMGWIFPGDDKTKYNEKFKGRVTLTSDTSISTAYMELSRLRSDDTAVYYCARGTKYLNWNFDVWGQGTTVTVSS VL: DIQLTQSPSFLSASVGDRVTITCKANQNVGTTLAWYQQKPGKSPKALIYSASYRYSGVPDRFSGSGSGTDFTLTISSLQPEDFATYFCHQYTTYPLTFGGGTKVEIK for me?
Found: 10.37
